// half-life lookup, one value per entry
# ASSAY PROCEDURE: Pharmacokinetics assay in rats
# Format: in vivo
# TEST PARAMETERS: rat; male Sprague-Dawley rats, po, 5 mg/kg, plasma

SMILES ENTRY: COc1cc(CN2CCN(C3CC4(CCN(c5ccc(C(=O)NS(=O)(=O)c6cnc(NC[C@H]7CC[C@](C)(O)CC7)c([N+](=O)[O-])c6)c(Oc6cc7c(F)c[nH]c7nc6OC)c5)CC4)C3)[C@H](c3ccccc3C(C)C)C2)ccc1C1CC1
half-life / h: 24.4

SMILES ENTRY: COc1cc(CN2CCN(C3CC4(CCN(c5ccc(C(=O)NS(=O)(=O)c6cnc(NC[C@H]7CC[C@](C)(O)CC7)c([N+](=O)[O-])c6)c(Oc6cc7c(F)c[nH]c7nc6OC)c5)CC4)C3)[C@H](c3ccccc3C(C)C)C2)ccn1
half-life / h: 7.02

SMILES ENTRY: COc1nc2[nH]cc(F)c2cc1Oc1cc(N2CCC3(CC2)CC(N2CCN(Cc4ccc(F)c(F)c4)C[C@H]2c2ccccc2C(C)C)C3)ccc1C(=O)NS(=O)(=O)c1cnc(NC[C@H]2CC[C@](C)(O)CC2)c([N+](=O)[O-])c1
half-life / h: 9.21

SMILES ENTRY: COc1nc2[nH]cc(F)c2cc1Oc1cc(N2CCC3(CC2)CC(N2CCN(Cc4ccc(OC)c5oc(C)cc45)C[C@H]2c2ccccc2C(C)C)C3)ccc1C(=O)NS(=O)(=O)c1cnc(NC[C@H]2CC[C@](C)(O)CC2)c([N+](=O)[O-])c1
half-life / h: 11.3

SMILES ENTRY: COc1nc2[nH]cc(F)c2cc1Oc1cc(N2CCC3(CC2)CC(N2CCN(Cc4ccc(OC(F)F)cc4)C[C@H]2c2ccccc2C(C)C)C3)ccc1C(=O)NS(=O)(=O)c1cnc(NC[C@H]2CC[C@](C)(O)CC2)c([N+](=O)[O-])c1
half-life / h: 28.9

SMILES ENTRY: CCOc1nc2[nH]cc(F)c2cc1Oc1cc(N2CCC3(CC2)CC(N2CCN(Cc4ccc(OC)cc4)C[C@H]2c2ccccc2C(C)C)C3)ccc1C(=O)NS(=O)(=O)c1cnc(NC[C@H]2CC[C@](C)(O)CC2)c([N+](=O)[O-])c1
half-life / h: 7.62

SMILES ENTRY: CCOc1nc2[nH]cc(F)c2cc1Oc1cc(N2CCC3(CC2)CC(N2CCN(Cc4ccc(F)c(F)c4)C[C@H]2c2ccccc2C(C)C)C3)ccc1C(=O)NS(=O)(=O)c1cnc(NC[C@H]2CC[C@](C)(O)CC2)c([N+](=O)[O-])c1
half-life / h: 9.57

SMILES ENTRY: COc1nc2[nH]cc(F)c2cc1Oc1cc(N2CCC3(CC2)CC(N2CCN(Cc4ccc(C5CC5)c(OC)n4)C[C@H]2c2ccccc2C(C)C)C3)ccc1C(=O)NS(=O)(=O)c1cnc(NC[C@H]2CC[C@](C)(O)CC2)c([N+](=O)[O-])c1
half-life / h: 8.1
